# Test system: Escherichia coli TOP10
# procedureText: shrunken log2 fold change of peptide-encoding DNA abundance (4.5 h post-induction vs induction); higher = less antimicrobial activity (less host growth inhibition)
# experimentalParameters: time post-induction: 4.5 h; library: site-saturation at positions 5, 18, 19, 20
Short version: shrunken log2 fold change at least -0.02 is 1, less is -1.

RRIRSRPPRLPRPRPRPRFLPRP | 1
RRIRVRPPRLPRPRPRPYPWPRP | -1
RRIRMRPPRLPRPRPRPPHWPRP | 1
RRIRMRPPRLPRPRPRPFNNPRP | -1
RRIRTRPPRLPRPRPRPFKTPRP | 1
RRIRIRPPRLPRPRPRPQKEPRP | 1
RRIRIRPPRLPRPRPRPPCVPRP | -1
RRIRMRPPRLPRPRPRPKCLPRP | 1

Turning now to a further record.
Enquiry: Is shrunken log2 fold change at least -0.02? Consider RRIRWRPPRLPRPRPRPWFYPRP
Return: -1

----------
# Test system: Escherichia coli TOP10
# procedureText: shrunken log2 fold change of peptide-encoding DNA abundance (4.5 h post-induction vs induction); higher = less antimicrobial activity (less host growth inhibition)
# experimentalParameters: time post-induction: 4.5 h; library: site-saturation at positions 5, 18, 19, 20
measuredProperty: shrunken log2 fold change
Returns: the value as a bare number; no unit string appended.

# annotated cases, reported shrunken log2 fold change shown
RRIRYRPPRLPRPRPRPFTFPRP | -1.08
RRIRRRPPRLPRPRPRPTTEPRP | 0.0681
RRIRSRPPRLPRPRPRPFTAPRP | -0.492
RRIRRRPPRLPRPRPRPRWMPRP | 0.25
RRIRLRPPRLPRPRPRPMIKPRP | 0.0349
RRIRERPPRLPRPRPRPHAIPRP | -0.234
RRIRNRPPRLPRPRPRPCIQPRP | 0.00396
RRIRYRPPRLPRPRPRPQHVPRP | -1.14

Enquiry: Which shrunken log2 fold change is listed for RRIRMRPPRLPRPRPRPTAGPRP ?
Return: 0.396

Enquiry: Which shrunken log2 fold change is listed for RRIRDRPPRLPRPRPRPPYTPRP ?
Return: -0.0539

Enquiry: Which shrunken log2 fold change is listed for RRIRMRPPRLPRPRPRPYCYPRP ?
Return: -0.13

Enquiry: Which shrunken log2 fold change is listed for RRIRSRPPRLPRPRPRPCINPRP ?
Return: -0.5

Enquiry: Which shrunken log2 fold change is listed for RRIRARPPRLPRPRPRPVGPPRP ?
Return: 0.124

Enquiry: Which shrunken log2 fold change is listed for RRIRFRPPRLPRPRPRPVYIPRP ?
Return: -1.22

Enquiry: Which shrunken log2 fold change is listed for RRIRHRPPRLPRPRPRPRSWPRP ?
Return: 0.129

Enquiry: Which shrunken log2 fold change is listed for RRIRNRPPRLPRPRPRPPRSPRP ?
Return: 0.446

Enquiry: Which shrunken log2 fold change is listed for RRIRHRPPRLPRPRPRPEGYPRP ?
Return: -0.124

Enquiry: Which shrunken log2 fold change is listed for RRIRNRPPRLPRPRPRPFHTPRP ?
Return: -0.232

Enquiry: Which shrunken log2 fold change is listed for RRIRTRPPRLPRPRPRPAILPRP ?
Return: -0.157

Enquiry: Which shrunken log2 fold change is listed for RRIRERPPRLPRPRPRPIATPRP ?
Return: 0.221

----------
Reported shrunken log2 fold change is given for each of the following sequences.
# Tested on: Escherichia coli TOP10
# procedureText: shrunken log2 fold change of peptide-encoding DNA abundance (4.5 h post-induction vs induction); higher = less antimicrobial activity (less host growth inhibition)
# experimentalParameters: time post-induction: 4.5 h; library: site-saturation at positions 5, 18, 19, 20
Returns: the value as a bare number; no unit string appended.

RRIRSRPPRLPRPRPRPHDGPRP | -0.01

Enquiry: Which shrunken log2 fold change is listed for RRIRSRPPRLPRPRPRPLFSPRP ?
Return: -0.0902

Enquiry: Which shrunken log2 fold change is listed for RRIRGRPPRLPRPRPRPKKMPRP ?
Return: 0.572

Enquiry: Which shrunken log2 fold change is listed for RRIRARPPRLPRPRPRPMRNPRP ?
Return: 0.756

Enquiry: Which shrunken log2 fold change is listed for RRIRNRPPRLPRPRPRPKNRPRP ?
Return: 0.0314

Enquiry: Which shrunken log2 fold change is listed for RRIRYRPPRLPRPRPRPTGLPRP ?
Return: -0.101

----------
# System: Escherichia coli TOP10
# procedureText: shrunken log2 fold change of peptide-encoding DNA abundance (4.5 h post-induction vs induction); higher = less antimicrobial activity (less host growth inhibition)
# experimentalParameters: time post-induction: 4.5 h; library: site-saturation at positions 5, 18, 19, 20
Short version: shrunken log2 fold change at least -0.07 is YES, less is NO.

RRIRARPPRLPRPRPRPWEIPRP | YES
RRIRVRPPRLPRPRPRPSEIPRP | NO
RRIRLRPPRLPRPRPRPIVDPRP | NO
RRIRHRPPRLPRPRPRPVVCPRP | NO
RRIRERPPRLPRPRPRPTSMPRP | NO
RRIRQRPPRLPRPRPRPVDAPRP | YES

Turning now to a further record.
Enquiry: Is shrunken log2 fold change at least -0.07? Consider RRIRERPPRLPRPRPRPWCYPRP
Return: NO

----------
# System: Escherichia coli TOP10
# procedureText: shrunken log2 fold change of peptide-encoding DNA abundance (4.5 h post-induction vs induction); higher = less antimicrobial activity (less host growth inhibition)
# experimentalParameters: time post-induction: 4.5 h; library: site-saturation at positions 5, 18, 19, 20
Reported shrunken log2 fold change is given for each of the following sequences.
Returns: the value as a bare number; no unit string appended.

# annotated cases, reported shrunken log2 fold change shown
RRIRFRPPRLPRPRPRPSSCPRP | -0.183
RRIRMRPPRLPRPRPRPIHWPRP | -0.257

Enquiry: Which shrunken log2 fold change is listed for RRIRQRPPRLPRPRPRPVFWPRP ?
Return: 0.113

----------
Reported shrunken log2 fold change is given for each of the following sequences.
# Test system: Escherichia coli TOP10
# procedureText: shrunken log2 fold change of peptide-encoding DNA abundance (4.5 h post-induction vs induction); higher = less antimicrobial activity (less host growth inhibition)
# experimentalParameters: time post-induction: 4.5 h; library: site-saturation at positions 5, 18, 19, 20

# annotated cases, reported shrunken log2 fold change shown
RRIRPRPPRLPRPRPRPSFEPRP | -0.102
RRIRKRPPRLPRPRPRPAEKPRP | 0.477

Enquiry: Give recorded shrunken log2 fold change with Escherichia coli TOP10 for the following sequence: RRIRCRPPRLPRPRPRPGRSPRP
Return: 0.0654

----------
# Tested on: Escherichia coli TOP10;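 further: peptides expressed intracellularly from a pBAD plasmid library in pooled LB shake-flask culture, induced with 0.3% L-arabinose, DNA abundance read by NGS, three biological replicates, DESeq2 with apeglm shrinkage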
# procedureText: shrunken log2 fold change of peptide-encoding DNA abundance (4.5 h post-induction vs induction); higher = less antimicrobial activity (less host growth inhibition)
# experimentalParameters: time post-induction: 4.5 h; library: site-saturation at positions 5, 18, 19, 20
Reported shrunken log2 fold change is given for each of the following sequences.
Returns: the value as a bare number; no unit string appended.

# annotated cases, reported shrunken log2 fold change shown
RRIRWRPPRLPRPRPRPWCWPRP | 0.304
RRIRRRPPRLPRPRPRPMTIPRP | 0.0416
RRIRWRPPRLPRPRPRPWINPRP | -0.506
RRIRNRPPRLPRPRPRPREPPRP | 0.697
RRIRIRPPRLPRPRPRPGTAPRP | -0.0164

Enquiry: Which shrunken log2 fold change is listed for RRIRSRPPRLPRPRPRPCTFPRP ?
Return: -0.401

Enquiry: Which shrunken log2 fold change is listed for RRIRWRPPRLPRPRPRPALAPRP ?
Return: 0.555

Enquiry: Which shrunken log2 fold change is listed for RRIRSRPPRLPRPRPRPCIEPRP ?
Return: -0.21

Enquiry: Which shrunken log2 fold change is listed for RRIRSRPPRLPRPRPRPHTAPRP ?
Return: -0.175

Enquiry: Which shrunken log2 fold change is listed for RRIRERPPRLPRPRPRPQGMPRP ?
Return: -0.284

Enquiry: Which shrunken log2 fold change is listed for RRIRYRPPRLPRPRPRPPKVPRP ?
Return: -0.149

Enquiry: Which shrunken log2 fold change is listed for RRIRHRPPRLPRPRPRPLAQPRP ?
Return: 0.00325

Enquiry: Which shrunken log2 fold change is listed for RRIRPRPPRLPRPRPRPMENPRP ?
Return: 0.127

Enquiry: Which shrunken log2 fold change is listed for RRIRARPPRLPRPRPRPHGIPRP ?
Return: 0.0225

Enquiry: Which shrunken log2 fold change is listed for RRIRWRPPRLPRPRPRPYWKPRP ?
Return: -0.123

Enquiry: Which shrunken log2 fold change is listed for RRIRCRPPRLPRPRPRPSVMPRP ?
Return: 0.445

Enquiry: Which shrunken log2 fold change is listed for RRIRYRPPRLPRPRPRPFSPPRP ?
Return: -0.319

Enquiry: Which shrunken log2 fold change is listed for RRIRWRPPRLPRPRPRPLFTPRP ?
Return: -0.137

Enquiry: Which shrunken log2 fold change is listed for RRIRTRPPRLPRPRPRPNLPPRP ?
Return: 0.0474

Enquiry: Which shrunken log2 fold change is listed for RRIRFRPPRLPRPRPRPQWAPRP ?
Return: 0.136

Enquiry: Which shrunken log2 fold change is listed for RRIRQRPPRLPRPRPRPEIRPRP ?
Return: 0.0114

Enquiry: Which shrunken log2 fold change is listed for RRIRVRPPRLPRPRPRPNPHPRP ?
Return: -0.185
